Field: pIC50. Provide a value for each of the compounds that follow.
Tgt: membrane-bound E. coli F1F0-ATPase (Escherichia coli, UniProt P0ABB4)
Assay: biochemical
Design: endogenous in cells; host or cells: Escherichia coli culture; crude membrane pellet after EDTA, freeze-thaw, sonication and centrifugation; species or system Escherichia coli (ATCC 25922)
Measurement setup: read-out: IC50
// scale note: pIC50 = -log10(conc_M); give the bare number

Input line: Identify measured pIC50 associated with CC1=CC(=O)C(C(C)C)=CC1=O
Output line: 4.24

Input line: Indicate the recorded pIC50 value for this compound: O=c1c(O)c(-c2ccc(O)c(O)c2)oc2cc(O)cc(O)c12
Output line: 4.52
